Molecular target: Sigma non-opioid intracellular receptor 1 (Cavia porcellus) (UniProt Q60492)
Sequence (Q60492 whole entry, looked up): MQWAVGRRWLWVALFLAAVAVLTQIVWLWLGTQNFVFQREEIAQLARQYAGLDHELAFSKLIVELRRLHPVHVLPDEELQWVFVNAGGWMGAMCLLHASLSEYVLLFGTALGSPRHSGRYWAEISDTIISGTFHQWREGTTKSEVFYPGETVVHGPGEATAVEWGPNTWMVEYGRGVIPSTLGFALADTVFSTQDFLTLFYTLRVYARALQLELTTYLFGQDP
Assay: Inhibitory activity against Opioid receptor sigma 1 in guinea pig cerebral cortex using [3H](+)-pentazocine as radio ligand at pH 7.5 for 150 min at 22 C
measure: IC50 (nM)
Just the number please, in nM, no unit attached.

## Input Answer with the recorded IC50 of CN(CCCCCCn1c(O)c2n(c1=O)Cc1ccccc1C2)CCc1ccccc1 only.
## Output 29.5

---

Could you please report measured IC50 for the items listed next?
Molecular target: Sigma non-opioid intracellular receptor 1 (Cavia porcellus) (UniProt Q60492)
Experiment: Inhibitory activity against opioid receptor sigma 1 in guinea pig cerebral cortex using [3H](+)-pentazocine as radio ligand at pH 7.5 for 150 min at 22 degree C

## Input Answer with the recorded IC50 of CN(CCCn1c(O)c2n(c1=O)Cc1ccccc1C2)c1ccccc1 only.
## Output > 100 nM

## Input Answer with the recorded IC50 of CN1CCN(CCCn2c(O)c3n(c2=O)Cc2ccccc2C3)CC1 only.
## Output > 100 nM

## Input Answer with the recorded IC50 of CC(C)NC(=O)CN1CCN(CCn2c(O)c3n(c2=O)Cc2ccccc2C3)CC1 only.
## Output > 100 nM

## Input Answer with the recorded IC50 of CN(CCCCCn1c(O)c2n(c1=O)Cc1ccccc1C2)CCc1ccccc1 only.
## Output 11.7 nM

## Input Answer with the recorded IC50 of CN(C)CCCN1CCN(CCn2c(O)c3n(c2=O)Cc2ccccc2C3)CC1 only.
## Output > 1000 nM

## Input Answer with the recorded IC50 of CN1CCN(CCn2c(O)c3n(c2=O)Cc2ccccc2C3)CC1 only.
## Output > 100 nM

## Input Answer with the recorded IC50 of CN(C)CCCN1CCN(CCCn2c(O)c3n(c2=O)Cc2ccccc2C3)CC1 only.
## Output > 100 nM

## Input Answer with the recorded IC50 of O=c1n(CCCN2CCN(CCO)CC2)c(O)c2n1Cc1ccccc1C2 only.
## Output > 100 nM
